- Test system: ER/Nf-kB
- assay-remarks: ER/NF-κB luciferase reporter assay in Ad5-wt-ER infected HAECT-1 cells (IL-1β induced)
- Type: cell-based, human
pIC50: −log10 of the molar value.
Classification field: enter True for pIC50 values not below 7, False for values below it.

# molecule, assigned-label
rows = [
    ("CCC1c2cccn2-c2cc(Cl)ccc2N1S(=O)(=O)c1ccc(O)cc1 (stereo not drawn)", "False"),
    ("CCC1c2ccc(F)n2-c2ccc(F)cc2N1S(=O)(=O)c1ccc(O)c(C)c1 (stereo not drawn)", "True"),
    ("CCC1c2ccc(F)n2-c2ccc(Br)cc2N1S(=O)(=O)c1ccc(O)cc1 (stereo not drawn)", "True"),
    ("CC1c2cccn2-c2ccc(Br)cc2N1S(=O)(=O)c1ccc(O)cc1 (stereo not drawn)", "True"),
    ("CCOC(=O)Oc1ccc(S(=O)(=O)N2c3c(C)cccc3-n3cccc3C2CC)cc1 (stereo not drawn)", "False"),
]
